TESTED_ON: human P2X4 (Homo sapiens, UniProt Q99571)
Sequence (Q99571 whole entry): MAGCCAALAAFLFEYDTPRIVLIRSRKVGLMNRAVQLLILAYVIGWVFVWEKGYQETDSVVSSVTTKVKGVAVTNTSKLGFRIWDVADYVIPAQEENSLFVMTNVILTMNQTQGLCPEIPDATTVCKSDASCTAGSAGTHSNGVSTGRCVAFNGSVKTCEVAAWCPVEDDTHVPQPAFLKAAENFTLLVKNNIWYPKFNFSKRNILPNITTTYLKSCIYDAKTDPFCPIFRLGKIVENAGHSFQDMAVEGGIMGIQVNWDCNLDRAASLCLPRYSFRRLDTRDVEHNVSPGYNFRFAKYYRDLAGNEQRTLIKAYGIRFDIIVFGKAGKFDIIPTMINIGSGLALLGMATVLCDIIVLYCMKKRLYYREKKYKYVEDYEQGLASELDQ
TEST_PROTOCOL: Human P2X4 HEK Cell FLIPR Assay
Type: cell-based
MEASUREMENT_CONTEXT: HEK293, HEK293 cells, agonist Bz-ATP at EC80; percentage of maximal inhibition; read-out: Human P2X4 HEK Cells (FLIPR Assay) avg Efficacy [%]
Method: HEK293 cells stably expressing human P2X4 were plated in poly-D-lysine-coated 384-well plates at a seeding density of 30000 cells/well and incubated overnight. P2X4 function was assessed by measuring intracellular calcium changes using the calcium-chelating dye Fluo8-AM (Molecular Devices) on a fluorescent imaging plate reader (FLEX/FLIPR station; Molecular Devices). […] The EC80 value of Bz-ATP was determined each assay day prior to compound profiling. […]
Parameter threshold = 90%. Response is Yes when Emax meets or exceeds it, else No.

1. NS(=O)(=O)c1cc(NC(=O)Cc2ccccc2Cl)ccc1-c1cnn(C2CC2)c1 [Example 349] = Yes
2. NS(=O)(=O)c1cc(NC(=O)Cc2ccccc2Cl)ccc1-n1cc(Cl)c(C(F)(F)F)n1 [Example 541] = No
3. NS(=O)(=O)c1cc(NC(=O)Cc2ccccc2Cl)ccc1-c1cnn(CC2CC2)c1 [Example 267] = Yes

Dear colleague, could you confirm whether NS(=O)(=O)c1cc(NC(=O)Cc2c(F)cc(F)cc2Cl)ccc1-n1cc(Cl)cn1 [Example 102] has Emax at or above 90%?
No

Dear colleague, could you confirm whether NS(=O)(=O)c1cc(NC(=O)Cc2ccc(Cl)cc2Cl)ccc1-n1ncc(C(F)(F)F)n1 [Example 416] has Emax at or above 90%?
No

Dear colleague, could you confirm whether NS(=O)(=O)c1cc(NC(=O)C(F)(F)c2ccccc2Cl)ccc1-n1cc(Cl)cn1 [Example 109] has Emax at or above 90%?
No

Dear colleague, could you confirm whether Cn1cc(-c2ccc(NC(=O)Cc3ccccc3F)cc2S(N)(=O)=O)cn1 [Example 374] has Emax at or above 90%?
No

Dear colleague, could you confirm whether NS(=O)(=O)c1cc(NC(=O)Cc2cccnc2Cl)ccc1-n1cc(Br)cn1 [Example 67] has Emax at or above 90%?
Yes

Dear colleague, could you confirm whether NS(=O)(=O)c1cc(NC(=O)Cc2ccccc2Cl)ccc1-n1cc(C(F)(F)F)cn1 [Example 19] has Emax at or above 90%?
No

----------
TESTED_ON: UniProtKB Q99571
TEST_PROTOCOL: Human P2X4 HEK Cell FLIPR Assay
MEASUREMENT_CONTEXT: HEK293 cells, agonist Bz-ATP at EC80; individual values listed where some fall outside detection range
Note to self: class = bucket of IC50, per low = under 60 nM, moderate = from 60 nM up to 400 nM, high = 400 nM and over

Take a look at these entries with their results.
1) NS(=O)(=O)c1cc(NC(=O)Cc2ccc(C(F)(F)F)cc2)ccc1-c1ccc(Cl)nc1 [Example 462] = high
2) NS(=O)(=O)c1cc(NC(=O)Cc2ccccc2Cl)cnc1-n1cc(Br)cn1 [Example 389] = low
3) NS(=O)(=O)c1cc(NC(=O)Cc2ccccc2Cl)ccc1-n1ccc(C(F)(F)F)n1 [Example 11] = high

Just checking, what class would you give NS(=O)(=O)c1cc(NC(=O)Cc2cccc(F)c2)ccc1-n1cc(F)cn1 [Example 144] here?
moderate

Just checking, what class would you give NS(=O)(=O)c1cc(NC(=O)Cc2ccccc2Cl)ccc1-n1ccc(F)n1 [Example 257] here?
low

Just checking, what class would you give NS(=O)(=O)c1cc(NC(=O)Cc2ccccc2Cl)ccc1-n1cnc(C2CC2)n1 [Example 36] here?
high
